Reported glycan array binding signal (z-score) values for the following binders.
System Under Test: Neu5Ac(a2-8)Neu5Ac(a2-3)Gal(b1-3)GalNAc(b1-4)[Neu5Ac(a2-3)]Gal(b1-4)Glc
Assay Comment: glycan array binding signal (z-score within array); higher = stronger binding
Details: glycan notation: IUPAC condensed, linker removed
Many of the other results were omitted from the sample, so the strongest signals are more common in it than they were.
Reply with just the number.

Binder	glycan array binding signal (z-score)
Gal 12 (Homo sapiens), Q96DT0 (protein) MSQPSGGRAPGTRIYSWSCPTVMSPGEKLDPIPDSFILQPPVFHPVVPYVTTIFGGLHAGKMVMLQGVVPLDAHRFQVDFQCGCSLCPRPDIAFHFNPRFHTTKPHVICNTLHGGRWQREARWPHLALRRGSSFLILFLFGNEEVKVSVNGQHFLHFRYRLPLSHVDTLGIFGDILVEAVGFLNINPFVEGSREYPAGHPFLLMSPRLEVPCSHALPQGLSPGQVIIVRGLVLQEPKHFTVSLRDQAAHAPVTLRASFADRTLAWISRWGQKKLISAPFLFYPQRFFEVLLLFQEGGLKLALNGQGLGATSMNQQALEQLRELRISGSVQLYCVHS	-0.299
Gal 8 (Mus musculus), Q9JL15 (protein) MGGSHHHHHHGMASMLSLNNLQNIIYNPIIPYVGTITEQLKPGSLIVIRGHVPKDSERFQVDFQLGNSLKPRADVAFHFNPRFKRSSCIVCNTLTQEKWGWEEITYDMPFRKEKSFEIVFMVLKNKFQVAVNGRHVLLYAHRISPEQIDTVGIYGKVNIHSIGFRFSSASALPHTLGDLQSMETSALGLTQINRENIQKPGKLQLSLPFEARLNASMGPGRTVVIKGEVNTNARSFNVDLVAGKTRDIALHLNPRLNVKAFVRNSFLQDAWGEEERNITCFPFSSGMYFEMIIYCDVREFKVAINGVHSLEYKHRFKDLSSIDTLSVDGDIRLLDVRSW	0.316

## Input Name the reported glycan array binding signal (z-score) value associated with the binder SP16663B-bot-321-25-321 (Bacteroides ovatus) (protein) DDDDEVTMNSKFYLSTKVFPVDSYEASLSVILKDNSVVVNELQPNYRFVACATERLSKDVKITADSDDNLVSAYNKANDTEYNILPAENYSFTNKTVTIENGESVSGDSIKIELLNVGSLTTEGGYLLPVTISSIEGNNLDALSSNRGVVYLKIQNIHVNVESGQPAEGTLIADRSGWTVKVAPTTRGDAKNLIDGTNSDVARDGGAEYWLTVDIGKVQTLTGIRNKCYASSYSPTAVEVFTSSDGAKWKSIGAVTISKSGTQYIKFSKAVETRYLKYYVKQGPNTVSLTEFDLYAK
## Output -0.244

## Input Name the recorded glycan array binding signal (z-score) for Erv46-EDTA (Saccharomyces cerevisiae), P39727 (protein) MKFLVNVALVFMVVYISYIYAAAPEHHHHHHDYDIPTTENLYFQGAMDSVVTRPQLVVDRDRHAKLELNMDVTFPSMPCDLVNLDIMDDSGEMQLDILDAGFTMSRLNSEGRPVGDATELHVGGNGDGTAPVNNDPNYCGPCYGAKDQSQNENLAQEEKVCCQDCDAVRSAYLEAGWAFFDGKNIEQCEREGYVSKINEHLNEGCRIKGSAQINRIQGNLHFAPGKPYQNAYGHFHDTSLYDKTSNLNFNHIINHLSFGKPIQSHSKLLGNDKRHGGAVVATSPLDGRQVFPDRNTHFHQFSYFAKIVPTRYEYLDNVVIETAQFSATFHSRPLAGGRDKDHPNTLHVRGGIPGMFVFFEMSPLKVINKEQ .
## Output -0.029

## Input Tell me the measured glycan array binding signal (z-score) of LFA (Limax flavus) (protein) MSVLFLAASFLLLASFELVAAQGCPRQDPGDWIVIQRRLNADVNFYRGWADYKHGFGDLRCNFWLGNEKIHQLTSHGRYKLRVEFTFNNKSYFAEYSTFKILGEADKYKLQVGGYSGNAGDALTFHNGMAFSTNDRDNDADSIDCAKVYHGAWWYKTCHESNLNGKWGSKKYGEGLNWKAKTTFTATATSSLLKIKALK , please.
## Output -0.229
